# key: entry, value: half-life
- condition label: rat; liver microsomes; pH 7.4; 15.0 min; 1.0 µM

[
  {
    "compound string": "NC(=O)C1CCN(c2nc(-c3cccc4ccccc34)cs2)CC1",
    "output unit": "min",
    "value qualifier": "=",
    "half-life": 4.72
  },
  {
    "compound string": "N#Cc1ccc(S(=O)(=O)Nc2cnccc2C(=O)Nc2nc(-c3ccccc3)cs2)cc1",
    "output unit": "min",
    "value qualifier": ">",
    "half-life": 30
  },
  {
    "compound string": "Cc1cc(NC(=O)c2ccc(NC(=O)Cc3ccc(Cl)c(Cl)c3)cc2)no1",
    "output unit": "min",
    "value qualifier": "=",
    "half-life": 22
  },
  {
    "compound string": "COc1cc(Nc2nc(-c3ccncc3)nc3ccccc23)ccc1F",
    "output unit": "min",
    "value qualifier": "=",
    "half-life": 7.35
  },
  {
    "compound string": "CC(C)Oc1ccc(-c2ccc(=O)n(CC(=O)NCCc3ccccc3)n2)cc1",
    "output unit": "min",
    "value qualifier": "=",
    "half-life": 1.6
  },
  {
    "compound string": "CN(C)c1cccc(-c2nnc(N3CCC(C(N)=O)CC3)s2)c1",
    "output unit": "min",
    "value qualifier": "=",
    "half-life": 15.7
  },
  {
    "compound string": "CC(=O)c1c(C)[nH]c(C(=O)Nc2cccc([S+](=O)([O-])Nc3ccc(C#N)cc3)c2)c1C",
    "output unit": "min",
    "value qualifier": ">",
    "half-life": 30
  },
  {
    "compound string": "O=C(Nc1ccc(S(=O)(=O)Nc2nccs2)cc1)c1ccnc2ccccc12",
    "output unit": "min",
    "value qualifier": ">",
    "half-life": 30
  },
  {
    "compound string": "Nc1c(C(=O)N2CCCCC2)sc(=S)n1-c1ccccc1",
    "output unit": "min",
    "value qualifier": "=",
    "half-life": 6.6
  },
  {
    "compound string": "CC(=O)OCCN1C(=O)c2c(C)nc3ccc(S(=O)(=O)N4CCOCC4)cc3c2C1=O",
    "output unit": "min",
    "value qualifier": "=",
    "half-life": 2.05
  }
]

----------
- condition label: rat; liver microsomes; pH 7.4; 15.0 min; 1.0 µM
measurement kind: log10 half-life (log10 of the value in min)

[
  {
    "molecule": "CC(=O)c1c(C)c(C(=O)Nc2cccc([S+](=O)([O-])N3CCCCCC3)c2)n(C)c1C",
    "log10 half-life": 0.15
  },
  {
    "molecule": "Cc1ccnc(NC(=S)N2CCN(c3ccc(Cl)c(Cl)c3)CC2)c1",
    "log10 half-life": 1.38
  },
  {
    "molecule": "CCn1c(=O)cc(OCC(=O)N2CCN(c3cccc(Cl)c3)CC2)c2ccccc21",
    "log10 half-life": 0.42
  },
  {
    "molecule": "CCC(=O)NC(c1ccc(OC)cc1)c1cc(Cl)c2cccnc2c1O (stereo not given)",
    "log10 half-life": 0.64
  },
  {
    "molecule": "CCOc1ccc(CCNC(=O)c2cc3sccc3n2CCN2CCN(C)CC2)cc1OCC",
    "log10 half-life": 0.79
  },
  {
    "molecule": "CCOC(=O)N1CCc2c(sc(NCc3sccc3C)c2C(=O)Nc2cc(Cl)ccc2OC)C1",
    "log10 half-life": 0.99
  },
  {
    "molecule": "CCc1cccc(NC(=O)c2cc(-c3ccc[nH]3)n[nH]2)c1",
    "log10 half-life": 0.82
  },
  {
    "molecule": "COc1cccc(CNc2ccc([S+](=O)([O-])Nc3cc4ccccc4s3)cc2)c1O",
    "log10 half-life": 0.54
  },
  {
    "molecule": "CC(=O)N1CCc2c(sc3c2c(=O)n(-c2ccccc2)c(=O)n3Cc2cccc(C(F)(F)F)c2)C1",
    "log10 half-life": 1.40
  },
  {
    "molecule": "CCN(CC)S(=O)(=O)c1ccc(N2CCOCC2)c(NC(=O)c2[nH]c(C)c(C(C)=O)c2C)c1",
    "log10 half-life": 0.74
  },
  {
    "molecule": "Cc1ccc(S(=O)(=O)Nc2cnccc2C(=O)Nc2nc(-c3ccccc3Cl)cs2)cc1",
    "log10 half-life": 1.11
  },
  {
    "molecule": "COc1ccnc(NC(=S)N2CCN(c3ccccc3C(F)(F)F)CC2)c1",
    "log10 half-life": 0.46
  },
  {
    "molecule": "COc1ccc(CCNC(=O)Cn2c(=O)c3cccn3c3ccc(F)cc32)cc1OC",
    "log10 half-life": 0.26
  }
]

----------
Recorded half-life, one value per entry.
- condition label: rat; liver microsomes; pH 7.4; 15.0 min; 1.0 µM
measurement kind: half-life (min)

[
  {
    "molecule": "CC(C)Oc1cccc(-c2csc(N3CCC(C(N)=O)CC3)n2)c1",
    "value qualifier": "=",
    "obs value": 3.09
  },
  {
    "molecule": "Cc1ccc(S(=O)(=O)Nc2cnccc2C(=O)NCc2ccccc2)cc1",
    "value qualifier": "=",
    "obs value": 5.9
  },
  {
    "molecule": "CN(Cc1ccc(/C=C/C(=O)NO)cc1)CC12CC3CC(CC(C3)C1)C2",
    "value qualifier": "=",
    "obs value": 2.89
  },
  {
    "molecule": "CCOC(=O)C1CCN(C(=O)C(C)(C)NC(=O)Nc2ccc(-c3ccccc3)cc2)CC1",
    "value qualifier": "=",
    "obs value": 1.4
  },
  {
    "molecule": "CC(C)N(CCC(=O)c1ccc2ccccc2c1)Cc1ccccc1",
    "value qualifier": "=",
    "obs value": 1.65
  },
  {
    "molecule": "O=C(Cc1ccc(O)cc1)N1CC(CNc2ccccc2)C2(C1)CN(c1ccccc1)C2 (stereo unspecified)",
    "value qualifier": "=",
    "obs value": 9.42
  },
  {
    "molecule": "Cc1cc(C)nc(NC(=S)N2CCN(c3cc(C(F)(F)F)nc4ccc(C(F)(F)F)cc34)CC2)c1",
    "value qualifier": ">",
    "obs value": 30
  },
  {
    "molecule": "COc1cc2cc(CN3CCC(N(C)C)C3)c(-c3cccc(Cl)c3)nc2cc1OC (stereo unspecified)",
    "value qualifier": "=",
    "obs value": 23.1
  },
  {
    "molecule": "CC1CC(C)(C)N(C(=O)CN2C(=O)c3ccccc3C2=O)c2ccccc21 (stereo unspecified)",
    "value qualifier": "=",
    "obs value": 1.56
  },
  {
    "molecule": "Cc1ccc(OCCn2c(CCNC(=O)N3CCCCC3)nc3ccccc32)cc1",
    "value qualifier": "=",
    "obs value": 1.7
  },
  {
    "molecule": "Fc1ccc(Nc2nc(-c3ccncc3F)nc3ccccc23)cc1F",
    "value qualifier": "=",
    "obs value": 20
  },
  {
    "molecule": "CCc1ccc(NC(=O)c2[nH]c(C)c(C(C)=O)c2C)cc1S(=O)(=O)Nc1cccc(C#N)c1",
    "value qualifier": "=",
    "obs value": 6.1
  },
  {
    "molecule": "CNc1nc2c(s1)C(c1ccccc1F)CC(=O)N2 (stereo unspecified)",
    "value qualifier": "=",
    "obs value": 3.51
  },
  {
    "molecule": "CCN1CCCC1CNC(=O)c1cc(S(=O)(=O)CC)c(N)cc1OC (stereo unspecified)",
    "value qualifier": ">",
    "obs value": 30
  },
  {
    "molecule": "C=C1[C@@H](C)C2[C@H](Cc3ccccc3)NC(=O)[C@@]23C(/C=C/C[C@H](C)C[C@@](C)(O)/C=C/[C@@H]3OC(C)=O)[C@@H]1O (stereo partly specified)",
    "value qualifier": "=",
    "obs value": 5.2
  },
  {
    "molecule": "Cc1cccc(CNc2ccc(S(=O)(=O)Nc3nccs3)cc2)c1O",
    "value qualifier": "=",
    "obs value": 21
  },
  {
    "molecule": "O=C(c1cnn(-c2cccc(F)c2)c1-n1cccc1)N1CCN(c2ccccc2F)CC1",
    "value qualifier": "=",
    "obs value": 1.93
  },
  {
    "molecule": "O=C1CCCC2=C1C(c1[nH]ncc1Cl)N=C(Nc1nc3ccc(Cl)cc3o1)N2 (stereo unspecified)",
    "value qualifier": "=",
    "obs value": 10
  },
  {
    "molecule": "CCOc1cc(F)c(CCNC(=O)c2cc3sccc3n2Cc2ccccc2)cc1OCC",
    "value qualifier": "=",
    "obs value": 1.8
  },
  {
    "molecule": "COc1ccc(C)cc1Nc1c2c(nc3ccccc13)CCC2",
    "value qualifier": "=",
    "obs value": 1.55
  },
  {
    "molecule": "Cc1ccc(-c2cc(C(=O)Nc3ccc(S(=O)(=O)N(C)C)cc3)c3ccccc3n2)cc1C",
    "value qualifier": "=",
    "obs value": 3.4
  }
]
